The measurements presented in this section are drawn from paper PMC8161486.

Target: ENL YEATS domain (Homo sapiens)
Sequence (Q03111 1-148): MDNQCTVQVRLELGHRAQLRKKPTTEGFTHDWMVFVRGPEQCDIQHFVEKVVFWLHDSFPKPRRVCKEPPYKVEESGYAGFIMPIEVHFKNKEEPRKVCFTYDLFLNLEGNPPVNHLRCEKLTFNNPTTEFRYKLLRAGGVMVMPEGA
Assay: ENL-H3K27cr HTRF
Conditions: ENL-H3K27cr HTRF IC50, purified compound
propertyName: pIC50
Expect pIC50 as a plain number equal to -log10 of the molar concentration.

The recorded pIC50 for `CC(C)NC(=O)c1ccc2nc(-c3cccc(NS(=O)(=O)NCCc4c[nH]cn4)c3)cn2c1` is 6.63
